- Tested on: MOLT-4 leukemia
- Method Description: NCI-60 one-dose screen, 48 h (100 = growth as untreated, 0 = no growth, -100 = all killed)
- Experimental Parameters: 10 µM unless noted
The panel holds about 83,000 compounds, 20% with a hit somewhere; the sample as a whole holds those more often.
As shown below, each of these compounds has a reported growth value.
Could you give me the number in %? Just the number is fine.

Consider the reported growth for these compounds:
compound=Cc1ccc(-c2nc(SCC(=O)c3ccc(C#N)cc3)[nH]c(=O)c2C#N)cc1 reported_endpoint=growth display_unit=% recorded_result=110
compound=Fc1ccccc1-c1cnn2cc(-c3ccccc3)cnc12 reported_endpoint=growth display_unit=% recorded_result=98.1
compound="O=C(/C=C/C12c3ccccc3C(c3ccccc31)C1C(=O)NC(=O)C12)c1ccncc1 (stereo not given)" reported_endpoint=growth display_unit=% recorded_result=1.28
compound=O=c1oc2c(Br)cc(Br)cc2cc1-c1cc(-c2ccc(-c3cc(-c4cc5cc(Br)cc(Br)c5oc4=O)nc(-c4cc5cc(Br)cc(Br)c5oc4=O)c3)cc2)cc(-c2cc3cc(Br)cc(Br)c3oc2=O)n1 reported_endpoint=growth display_unit=% recorded_result=102

Assign growth to the following record: OB(O)c1ccsc1-c1nc2ccc3[nH]ncc3c2c2c1CCCC2 58.5

---

- System: HOP-62 NSCLC
- Method Description: NCI-60 one-dose screen, 48 h (100 = growth as untreated, 0 = no growth, -100 = all killed)
- Experimental Parameters: 10 µM unless noted
The panel holds about 83,000 compounds, 20% with a hit somewhere; the sample as a whole holds those more often.
So basically every entry gets a class from its growth, ranges being category 1 = under -20%, category 2 = from -20% up to 90%, category 3 = 90% and over

molecule=O=C(CCl)N(O)c1ccc(/C=C/c2ccccc2)cc1 group_label="category 3"
molecule=N#C/C(=C\c1ccccc1Cl)c1cc2ccccc2[nH]1 group_label="category 2"

Where would CC(=O)c1nn(-c2ccccc2)/c(=N/N=Cc2cn(-c3ccccc3)nc2-c2cc3ccccc3oc2=O)s1 land among the classes by reported growth? category 3

Where would Cc1ccc(-c2nc3nc(-c4ccc(F)cc4)nc(N4CCCNCC4)c3o2)cc1 land among the classes by reported growth? category 1

Where would C=C(CNCCO)[C@@H]1CC[C@]2(CO)CC[C@]3(C)[C@H](CC[C@@H]4[C@@]5(C)CCC(NCCc6ccc(O)cc6)C(C)(C)[C@@H]5CC[C@]43C)[C@@H]12 (some centres not stated) land among the classes by reported growth? category 1

Where would O=C(NCCCN1CCCCC1)c1ccc(-c2nc3ccc4[nH]ncc4c3c3c2CCCC3)cc1 land among the classes by reported growth? category 2

Where would COc1cc2nc3cc([N+](=O)[O-])ccc3c(NCCNCC(C)(C)O)c2cc1OC land among the classes by reported growth? category 1

Where would CC12OC(CC(O)C1O)n1c3ccccc3c3c4c(c5c6ccccc6n2c5c31)C(=O)N(CCN1CCOCC1)C4=O (configuration not stated) land among the classes by reported growth? category 2

Where would Cc1nc2sc(C(=O)Nc3cccc4ccccc34)c(N)c2cc1C(=O)/C=C/c1ccccc1 land among the classes by reported growth? category 1

---

- System: M14 melanoma
- Method Description: NCI-60 one-dose screen, 48 h
- Experimental Parameters: 10 µM unless noted
The panel holds about 83,000 compounds, 20% with a hit somewhere; the sample as a whole holds those more often. Activity calls are given as the source filed them. Rule for the calls: active = growth percent below 10; inactive = the rest.
Use one of these outcomes when replying: active, inactive

molecule_smiles=COc1cc(-c2nc(SCCC(C)C)nc(Nc3ccc(F)cc3)c2C#N)cc(OC)c1OC group_label=inactive

So what was the verdict on S=c1nc(CS)[nH]c2ccccc12 in this test? inactive

---

- Test system: NCI/ADR-RES ovarian
- Method Description: NCI-60 one-dose screen, 48 h
- Experimental Parameters: 10 µM unless noted
This is part of a sample that, as a whole, favours compounds with a hit. Of some 83,000 tested, about 20% had one in any assay. The source made the active and inactive calls. The calls were made as follows: active = growth percent below 10; inactive = the rest.
Use one of these outcomes when replying: TRUE = active, FALSE = inactive

Example results:
compound=Clc1cccc(Nc2ncnc3ccc(-c4cncc(-n5cnnn5)c4)cc23)c1 system_tested="NCI/ADR-RES ovarian" group_label=FALSE
compound=Fc1ccccc1-c1cnn2cc(-c3ccccc3)cnc12 system_tested="NCI/ADR-RES ovarian" group_label=FALSE
compound="CCN1C(=O)N(c2ccccc2)C2NC(=S)N(/N=C/C=C/c3ccccc3)C21 (stereo unspecified)" system_tested="NCI/ADR-RES ovarian" group_label=TRUE
compound=CCN(C(=O)N1CCN(c2cc3c(cc2F)c(=O)c(C(=O)O)cn3C2CC2)CC1)c1nc(-c2ccccc2)cs1 system_tested="NCI/ADR-RES ovarian" group_label=FALSE
compound=COc1ccc2c(c1)c(-c1nc(-c3c[nH]c4c(Cl)nccc34)cs1)cn2C system_tested="NCI/ADR-RES ovarian" group_label=FALSE

So what was the verdict on Clc1ccc(CNc2ccc3nc(CCC4CCCCC4)[nH]c3c2)cc1 in this test? FALSE

So what was the verdict on OCCN1CCN(c2cc(-c3cccc(OC(F)(F)F)c3)nc3ccc(N4CCCC4)cc23)CC1 in this test? FALSE

So what was the verdict on CCOC(=O)c1cc2c(n1Cc1cc(OC)cc(OC)c1Br)-c1nc(NC(C)=O)sc1CCC2 in this test? FALSE

So what was the verdict on Cc1ccc(-c2nc3nc(-c4ccc(Br)cc4)nc(N4CCCNCC4)c3o2)cc1 in this test? TRUE

So what was the verdict on CCCCCCCCCCCCCCCCCCn1cc(COc2ccc(C=O)cc2)nn1 in this test? FALSE

So what was the verdict on Nc1nc(Nc2cccnc2)sc1C(=O)c1ccccc1F in this test? FALSE

So what was the verdict on COc1cc(F)c(/C=C/c2cc(/C=C/c3cc(OC)c(OC)cc3F)n(-c3cc(F)cc(F)c3)n2)cc1OC in this test? FALSE

So what was the verdict on CCCn1nc(C(=O)N2CCCCC2)c2c1CCC(N1CCC(c3ccncc3)CC1)C2 (stereo unspecified) in this test? FALSE

---

- Tested on: HCT-15 colon
- Method Description: NCI-60 one-dose screen, 48 h
- Experimental Parameters: 10 µM unless noted
The panel holds about 83,000 compounds, 20% with a hit somewhere; the sample as a whole holds those more often. Calls of active or inactive are those of the source. Rule for the calls: active = growth percent below 10; inactive = the rest.
Use one of these outcomes when replying: label 1 (active), label 0 (inactive)

compound=O=C1/C(=C/c2cn(-c3ccccc3)nc2-c2ccccc2)SC(=S)N1c1ccc(Cl)cc1 system_tested="HCT-15 colon" group_label="label 0"
compound=O=C(Nc1ccc2ccccc2c1)c1cc2ccccc2cc1O system_tested="HCT-15 colon" group_label="label 0"
compound=COc1cc(Cl)cc(-c2nn(C(=O)NS(=O)(=O)c3ccc(Cl)cc3)cc2-c2ccncc2)c1 system_tested="HCT-15 colon" group_label="label 0"
compound="COc1ccc(/C=N/C2=C(C#N)C(c3ccccc3)c3c(ccc4ccccc34)O2)cc1 (configuration not stated)" system_tested="HCT-15 colon" group_label="label 0"
compound="C=C(C)[C@@H]1CC[C@]2(C(=O)O)CC[C@]3(C)[C@H](CC[C@@H]4[C@@]5(C)CCC(N)C(C)(C)[C@@H]5CC[C@]43C)[C@@H]12 (some centres not stated)" system_tested="HCT-15 colon" group_label="label 0"
compound="CCOC(=O)C1=C(C)NC(=O)NC1c1c(Cl)n(-c2ccccc2)c2ccccc12 (configuration not stated)" system_tested="HCT-15 colon" group_label="label 0"

Now for another entry.
So what was the verdict on Cc1ccc(-c2nc3nc(-c4ccc(Cl)cc4)nc(N4CCCNCC4)c3o2)cc1 in this test? label 1

---

- System: K-562 leukemia
- Method Description: NCI-60 one-dose screen, 48 h (100 = growth as untreated, 0 = no growth, -100 = all killed)
- Experimental Parameters: 10 µM unless noted
- Protocol: Cells are grown in 96 well plates and exposed to the test compound for 48 hours. Compounds are tested at a single concentration, which is 10^-5 M for most compounds. The reported endpoint is percent growth (GI% or GIPRCNT), where numbers from 0 - 100% represent growth inhibition, and numbers from -100% - 0 represent cell death. For example, a value of 40 represents 60% growth inhibition. A value of 0 means no net growth occurred over the course of the experiment. […]
The panel holds about 83,000 compounds, 20% with a hit somewhere; the sample as a whole holds those more often.
Reported Endpoint: growth (%)
Could you give me the number in %? Just the number is fine.

Consider the reported growth for these compounds:
compound="Cn1ccnc1CN1CCSC(C(=O)Nc2ccccc2)C1 (stereo not drawn)" recorded_result=92.1
compound=COc1cc(-c2nc3occn3c2-c2ccnc(NCCCNS(=O)(=O)c3ccc(O)cc3)n2)ccc1F recorded_result=80.6

Please look at the following compound next.
Assign growth to the following record: COc1ccc(-c2cc(-c3cc(OC)c(OC)c(OC)c3)c(C#N)c(=O)n2CCCCC(=O)O)cc1 88
